- target.system: protein-protein interaction between Kras and SOS1 (biotin-tagged human Kras loaded with GDP, His-tagged human SOS1) (Homo sapiens (Human), UniProt P01116, G12D)
- assay.procedure: Protein-protein interaction inhibition between Kras and SOS1 (KrasG12D-SOS PPI) using AlphaScreen;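 also: kras produced in E. coli, Ni-coupled donor beads and streptavidin acceptor beads, excitation 680 nm with emission detected at 520–620 nm via singlet oxygen transfer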
- Format: biochemical
- condition.set: AlphaScreen; biotin-tagged human Kras loaded with GDP, His-tagged human SOS1; read-out: KRAS G12D-SOS PPI IC50
Numbered stars: 1 amine (or outer) side, 2 acyl side, 3 side chain; on linkers, the order of the positions; unused ones are H or OH. Bridge positions count the residues as written; N and C are the ends. Square brackets hold non-standard residues; d marks the D form. Peptide text beside a SMILES is read from it. * marks the point of attachment. hPhe(3,5-F2-4-CF3) = N[C@@H](CCc1cc(F)c(C(F)(F)F)c(F)c1)C(=O)O; hPhe(3-Cl-4-CF3) = N[C@@H](CCc1ccc(C(F)(F)F)c(Cl)c1)C(=O)O; NMePhe(4-CF3) = CN[C@@H](Cc1ccc(C(F)(F)F)cc1)C(=O)O; X18 = O=C([C@H](CCc1ccc(C(F)(F)F)cn1)N[*:1])[*:2]; NMePhe(4-Me) = CN[C@@H](Cc1ccc(C)cc1)C(=O)O; NMedβ3hAla = C[C@H](CC(=O)[*:2])N(C)[*:1]; NMeGly(cPent) = CN[C@H](C(=O)O)C1CCCC1; NMeCha = CN[C@@H](CC1CCCCC1)C(=O)O; Hyp = O=C(O)[C@@H]1C[C@@H](O)CN1; NMeChg = CN[C@H](C(=O)O)C1CCCCC1; NMeI = CC[C@H](C)[C@H](NC)C(=O)O; X68 = COCCOCCN(CC(=O)[*:2])[*:1]; NMeD = CN[C@@H](CC(=O)O)C(=O)O; NMeL = CN[C@@H](CC(C)C)C(=O)O; NMeV = CN[C@H](C(=O)O)C(C)C; d(β3hA) = C[C@@H](N)CC(=O)O; NMeA = CN[C@@H](C)C(=O)O; NMeAib = CNC(C)(C)C(=O)O; Piperidide = C1CCN(*)CC1; Pyrrolidide = C1CCN(*)C1; dNMeA = CN[C@H](C)C(=O)O; Ac5c = NC1(C(=O)O)CCCC1; Aze = O=C(O)[C@@H]1CCN1; Ac4c = NC1(C(=O)O)CCC1; Sar = CNCC(=O)O
The reader will find reported pIC50 values listed item by item below.
API: returns pIC50 as number; meaning -log10 of concentration in mol/L.

These recorded examples may help you get a feel for the data.
molecule	observable	numeric.result
CC[C@H](C)[C@@H]1NC(=O)[C@H](CC(C)C)N(C)C(=O)C[C@@H](C(=O)N2CCCCC2)N(C)C(=O)[C@H](C2CCCC2)N(C)C(=O)C2(CCCC2)NC(=O)[C@@H]2CCCN2C(=O)[C@H](CCc2ccc(C(F)(F)F)cn2)NC(=O)CN(C)C(=O)[C@H](CC2CCCCC2)N(C)C(=O)[C@@H]2CCN2C(=O)[C@H](C)N(C)C1=O [Compound 2069] ([NMeL]I[NMeA][Aze][NMeCha][Sar][X18]P[Ac5c][NMeGly(cPent)][NMeD]-Piperidide; lactam N-11 (inferred); C-terminus assumed)	pIC50	7.11
CC[C@H](C)[C@@H]1NC(=O)[C@H](CC(C)C)N(C)C(=O)C[C@@H](C(=O)N2CCCCC2)N(C)C(=O)[C@H](C(C)C)N(C)C(=O)[C@H](C(C)C)NC(=O)[C@@H]2CCCN2C(=O)[C@H](CCc2ccc(C(F)(F)F)c(Cl)c2)NC(=O)CN(C)C(=O)[C@H](CC2CCCCC2)N(C)C(=O)[C@@H]2CCN2C(=O)[C@H](C)N(C)C1=O [Compound 741] ([NMeL]I[NMeA][Aze][NMeCha][Sar][hPhe(3-Cl-4-CF3)]PV[NMeV][NMeD]-Piperidide; lactam N-11)	pIC50	7.07
CC[C@H](C)[C@@H]1NC(=O)[C@H](CC(C)C)N(C)C(=O)C[C@@H](C)NC(=O)[C@H](C2CCCC2)N(C)C(=O)C2(CCCC2)NC(=O)[C@@H]2CCCN2C(=O)[C@H](CCc2ccc(C(F)(F)F)c(Cl)c2)NC(=O)[C@@H](C)N(C)C(=O)[C@H](Cc2ccc(C)cc2)N(C)C(=O)[C@@H]2CCN2C(=O)[C@H](C)N(C)C1=O [Compound 1504] (cyclo([Ac5c][NMeGly(cPent)][d(β3hA)][NMeL]I[NMeA][Aze][NMePhe(4-Me)][dNMeA][hPhe(3-Cl-4-CF3)]P))	pIC50	7.24
CC[C@H](C)[C@@H]1NC(=O)[C@H](CC(C)C)N(C)C(=O)C[C@@H](C(=O)N(C)C)N(C)C(=O)[C@H](C2CCCCC2)N(C)C(=O)C2(CCCC2)NC(=O)[C@@H]2CCCN2C(=O)[C@H](CCc2ccc(C(F)(F)F)c(Cl)c2)NC(=O)CN(C)C(=O)[C@H](CC2CCCCC2)N(C)C(=O)[C@@H]2CCN2C(=O)[C@H](C)N(C)C1=O [Compound 1675] ([NMeL]I[NMeA][Aze][NMeCha][Sar][hPhe(3-Cl-4-CF3)]P[Ac5c][NMeChg][NMeD]-NMe2; lactam N-11)	pIC50	8.92
CC[C@H](C)[C@@H]1NC(=O)[C@H](CC(C)C)N(C)C(=O)C[C@@H](C(=O)N2CCCCC2)N(C)C(=O)[C@H](C2CCCCC2)N(C)C(=O)C2(CCCC2)NC(=O)CN(CCOCCOC)C(=O)[C@H](CCc2ccc(C(F)(F)F)c(Cl)c2)NC(=O)CN(C)C(=O)[C@H](CC2CCCCC2)N(C)C(=O)CN(C)C(=O)CN(C)C1=O [Compound 2025] ([NMeL]I[Sar][Sar][NMeCha][Sar][hPhe(3-Cl-4-CF3)][X68][Ac5c][NMeChg][NMeD]-Piperidide; lactam N-11 (inferred); C-terminus assumed)	pIC50	8.85

Quick one: give measured pIC50 for CC[C@H](C)[C@@H]1NC(=O)[C@H](CC(C)C)N(C)C(=O)C[C@@H](C)N(C)C(=O)[C@H]([C@@H](C)CC)N(C)C(=O)C2(CCCC2)NC(=O)[C@@H]2CCCN2C(=O)[C@H](CCc2ccc(C(F)(F)F)c(Cl)c2)NC(=O)CN(C)C(=O)[C@H](CC2CCCCC2)N(C)C(=O)[C@@H]2CCN2C(=O)[C@H](C)N(C)C1=O [Compound 1733] (cyclo([Ac5c][NMeI][NMedβ3hAla][NMeL]I[NMeA][Aze][NMeCha][Sar][hPhe(3-Cl-4-CF3)]P))
6.89

Quick one: give measured pIC50 for CC[C@H](C)[C@@H]1NC(=O)[C@H](C)N(C)C(=O)C[C@@H](C)NC(=O)[C@H](C2CCCC2)N(C)C(=O)C2(CCCC2)NC(=O)[C@@H]2CCCN2C(=O)[C@H](CCc2ccc(C(F)(F)F)c(Cl)c2)NC(=O)[C@H]2CCCN2C(=O)[C@H](Cc2ccc(C(F)(F)F)cc2)N(C)C(=O)CN(C)C(=O)CN(C)C1=O [Compound 1470] (cyclo([Ac5c][NMeGly(cPent)][d(β3hA)][NMeA]I[Sar][Sar][NMePhe(4-CF3)][dP][hPhe(3-Cl-4-CF3)]P))
6.68

Quick one: give measured pIC50 for CC[C@H](C)[C@@H]1NC(=O)[C@H](C)N(C)C(=O)C[C@@H](C)NC(=O)[C@H](C2CCCCC2)N(C)C(=O)C(C)(C)N(C)C(=O)[C@@H]2CCCN2C(=O)[C@H](CCc2ccc(C(F)(F)F)c(Cl)c2)NC(=O)CN(C)C(=O)[C@H](CC2CCCCC2)N(C)C(=O)[C@@H]2CCN2C(=O)[C@H](C)N(C)C1=O [Compound 291] (cyclo([Aze][NMeCha][Sar][hPhe(3-Cl-4-CF3)]P[NMeAib][NMeChg][d(β3hA)][NMeA]I[NMeA]))
7.26

Quick one: give measured pIC50 for CCO[C@@H]1C[C@H]2C(=O)NC3(CCC3)C(=O)N(C)[C@@H](C3CCCCC3)C(=O)N(C)[C@H](C(=O)N3CCCC3)CC(=O)N(C)[C@@H](CC(C)C)C(=O)N[C@@H]([C@@H](C)CC)C(=O)N(C)CC(=O)N(C)CC(=O)N(C)[C@@H](CC3CCCCC3)C(=O)N(C)CC(=O)N[C@@H](CCc3cc(F)c(C(F)(F)F)c(F)c3)C(=O)N2C1 [Compound 1366] ([NMeL]I[Sar][Sar][NMeCha][Sar][hPhe(3,5-F2-4-CF3)][Hyp](Et)[Ac4c][NMeChg][NMeD]-Pyrrolidide; lactam N-11)
9.20

Reference source: patent US20240148821A1
